Provenance of the data: patent US20250170248A1

# SYSTEM_UNDER_TEST: SMARCA2 (Homo sapiens, UniProt P51531)
# Sequence (P51531 whole entry): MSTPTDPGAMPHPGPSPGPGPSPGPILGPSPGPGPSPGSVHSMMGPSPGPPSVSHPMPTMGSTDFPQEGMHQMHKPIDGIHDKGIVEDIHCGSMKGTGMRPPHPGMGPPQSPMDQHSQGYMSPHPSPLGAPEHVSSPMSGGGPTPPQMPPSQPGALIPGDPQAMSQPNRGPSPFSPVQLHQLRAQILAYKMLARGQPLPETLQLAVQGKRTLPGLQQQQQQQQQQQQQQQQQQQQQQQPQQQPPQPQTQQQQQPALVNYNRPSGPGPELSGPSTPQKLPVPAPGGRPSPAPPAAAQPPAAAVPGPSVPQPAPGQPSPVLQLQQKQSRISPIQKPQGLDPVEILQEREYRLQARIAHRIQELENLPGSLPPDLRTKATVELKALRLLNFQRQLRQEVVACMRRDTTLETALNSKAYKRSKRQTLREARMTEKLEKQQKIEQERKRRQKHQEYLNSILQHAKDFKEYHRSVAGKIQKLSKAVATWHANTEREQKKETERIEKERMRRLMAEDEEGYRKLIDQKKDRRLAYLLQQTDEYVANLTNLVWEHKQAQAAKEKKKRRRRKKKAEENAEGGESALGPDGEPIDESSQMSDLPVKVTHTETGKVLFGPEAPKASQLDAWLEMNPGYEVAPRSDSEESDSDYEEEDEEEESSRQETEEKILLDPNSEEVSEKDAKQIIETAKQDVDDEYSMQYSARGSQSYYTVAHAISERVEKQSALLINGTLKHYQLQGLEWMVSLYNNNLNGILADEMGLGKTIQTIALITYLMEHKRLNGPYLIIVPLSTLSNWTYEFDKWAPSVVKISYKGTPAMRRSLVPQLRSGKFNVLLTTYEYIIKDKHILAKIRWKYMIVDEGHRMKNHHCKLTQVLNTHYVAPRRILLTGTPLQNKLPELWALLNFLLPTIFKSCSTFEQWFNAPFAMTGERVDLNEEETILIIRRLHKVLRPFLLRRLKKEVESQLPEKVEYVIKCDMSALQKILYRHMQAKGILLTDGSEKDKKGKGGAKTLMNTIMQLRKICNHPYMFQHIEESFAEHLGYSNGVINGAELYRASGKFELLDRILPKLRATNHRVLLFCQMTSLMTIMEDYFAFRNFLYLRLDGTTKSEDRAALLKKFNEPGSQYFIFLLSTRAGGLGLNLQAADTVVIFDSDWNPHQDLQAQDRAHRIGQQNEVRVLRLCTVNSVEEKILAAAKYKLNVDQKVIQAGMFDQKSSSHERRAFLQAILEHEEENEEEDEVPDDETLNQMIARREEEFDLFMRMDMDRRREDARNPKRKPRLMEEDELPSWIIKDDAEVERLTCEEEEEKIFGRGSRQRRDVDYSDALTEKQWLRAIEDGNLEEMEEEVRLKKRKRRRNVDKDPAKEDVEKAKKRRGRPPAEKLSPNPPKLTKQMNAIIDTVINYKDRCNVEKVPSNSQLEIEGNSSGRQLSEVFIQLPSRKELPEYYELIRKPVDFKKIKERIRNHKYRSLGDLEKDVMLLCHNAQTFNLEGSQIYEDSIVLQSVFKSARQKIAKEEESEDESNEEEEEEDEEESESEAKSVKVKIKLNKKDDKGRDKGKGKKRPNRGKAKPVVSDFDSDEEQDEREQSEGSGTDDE
# EXPERIMENT_DESCRIPTION: SMARCA2 Western blot degradation in MV4-11 cells
# Format: cell-based
# Design: SMARCA2/SMARCA4 protein degradation selectivity in MV4-11 cells; endogenous in cells; host or cells: MV4-11
# ASSAY_SETUP: MV4-11 cells, 24 h; read-out: SMARCA2 MSD MV411 degradation 24 h: Mean external-Abs DC50
TEST_READOUT: DC50

Known DC50 results, listed for orientation:
C#Cc1ccc(CNC(=O)[C@@H]2C[C@@H](O)CN2C(=O)[C@@H](NC(=O)[C@H]2CCC3(CC2)C[C@H](N2CCC(N4CC5(CC(N6CCN7c8cc(-c9ccccc9O)nnc8NC[C@H]7C6)C5)C4)CC2)C3)C(C)(C)C)cc1 (single isomer, unassigned) [I-237] : 1 to 10 nM
C#Cc1ccc(CNC(=O)[C@@H]2C[C@@H](O)CN2C(=O)[C@@H](NC(=O)N2CC3(CC(N4CCC(c5cnc(N6CCc7[nH]c8nnc(-c9ccccc9O)cc8c7[C@H]6C)nc5)CC4)C3)C2)C(C)(C)CCN2CCN[C@H](C(=O)O)C2)cc1 [I-344] : > 100 nM

In one line, give reported DC50 of the entry C#Cc1ccc(CNC(=O)[C@@H]2C[C@@H](O)CN2C(=O)[C@@H](NC(=O)N2CCN(CC3CCN(c4cnc(N5CCc6[nH]c7nnc(-c8ccccc8O)cc7c6[C@H]5C)nc4)CC3)CC2)C(C)(C)C)cc1 [I-159] .
10 to 100 nM

In one line, give reported DC50 of the entry C#Cc1ccc([C@@H](C)NC(=O)[C@@H]2C[C@@H](O)CN2C(=O)C(c2cc(N3CCC(CN4CCC(N5CCC(N6CCN7c8cc(-c9ccccc9O)nnc8NC[C@H]7C6)CC5)CC4)CC3)no2)C(C)C)c(Cl)c1 (some centres unmarked) [I-327] .
10 to 100 nM

In one line, give reported DC50 of the entry Cc1ncsc1-c1ccc(CNC(=O)[C@@H]2C[C@@H](O)CN2C(=O)[C@@H](OC(=O)N2CC3(CC(N4CCN(c5cnc(N6CCN7c8cc(-c9ccccc9O)nnc8NC[C@H]7C6)nc5)CC4)C3)C2)C(C)(C)C)cc1 [I-96] .
< 1 nM

In one line, give reported DC50 of the entry C#Cc1ccc(CNC(=O)[C@@H]2C[C@@H](O)CN2C(=O)[C@@H](NC(=O)[C@H]2CC3(C2)C[C@H](N2CCC(N4CCC(N5CCN6c7cc(-c8ccccc8O)nnc7NC[C@H]6C5)CC4)CC2)C3)C(C)(C)C)c(O)c1 (some centres unmarked) [I-242] .
1 to 10 nM

In one line, give reported DC50 of the entry C#Cc1ccc(CNC(=O)[C@@H]2C[C@@H](O)CN2C(=O)[C@@H](NC(=O)N2CC3(CC(N4CCC(c5cnc(N6CCc7[nH]c8nnc(-c9ccccc9O)cc8c7[C@H]6C)nc5)CC4)C3)C2)C(C)(C)C)c(OCC(=O)O)c1 [I-144] .
1 to 10 nM

In one line, give reported DC50 of the entry Cc1ncsc1-c1ccc(CNC(=O)[C@@H]2C[C@@H](O)CN2C(=O)[C@@H](NC(=O)[C@H]2CC3(C2)C[C@H](N2CCC(c4ccnc(N5CCN6c7cc(-c8ccccc8O)nnc7NC[C@H]6C5)n4)CC2)C3)C(C)(C)C)cc1 (single isomer, unassigned) [I-5] .
1 to 10 nM
